measuredOn: Transcriptional activator Myb (Homo sapiens)
assayNotes: ATG_Myb_CIS: Attagene CIS-FACTORIAL HepG2 Assay for human Myeloblastosis (Myb) Proto-Oncogene Transcription Factor (AID 2282986)
conditionNotes: HepG2 Attagene CIS-FACTORIAL Myb reporter transcription; actives raise or lower the signal
Activity calls are given as the source filed them. How the source made its calls: active means hit-call score of the fitted dose curve at least 0.9, where 1 is the maximum; inactive means score below 0.9.
Write down one outcome, taken from T for active, F for inactive

Example results:
molecule: Cc1cccc(C(C)(C)C)c1O
labelValue: F
//
molecule: CC(C)C(=O)OCCc1ccccc1
labelValue: F
//
molecule: Cc1c(C(=O)c2c[nH]n(C)c2=O)ccc(S(C)(=O)=O)c1C1=NOCC1
labelValue: F
//
molecule: CCC(=O)C1CC(C(C)C)CC=C1C (stereo not drawn)
labelValue: F

*Q* Kindly provide the recorded test outcome for the following molecule: `CC(C)CO`
*A* F

*Q* And `O=c1c(O)c(-c2ccc(O)cc2O)oc2cc(O)cc(O)c12` ?
*A* F

*Q* Lookup `Oc1ccc(-c2ccccc2)c(Cl)c1`
*A* F

*Q* Another molecule: `CC(C)c1ccc2ncccc2c1`
*A* F

*Q* `CC1(C)CC(O)CC(C)(C)N1[O]` ?
*A* F

---

measuredOn: bovine Estrogen Receptor (ER), ESR1 (gene 407238) (UniProt P49884)
Sequence (P49884 whole entry, looked up): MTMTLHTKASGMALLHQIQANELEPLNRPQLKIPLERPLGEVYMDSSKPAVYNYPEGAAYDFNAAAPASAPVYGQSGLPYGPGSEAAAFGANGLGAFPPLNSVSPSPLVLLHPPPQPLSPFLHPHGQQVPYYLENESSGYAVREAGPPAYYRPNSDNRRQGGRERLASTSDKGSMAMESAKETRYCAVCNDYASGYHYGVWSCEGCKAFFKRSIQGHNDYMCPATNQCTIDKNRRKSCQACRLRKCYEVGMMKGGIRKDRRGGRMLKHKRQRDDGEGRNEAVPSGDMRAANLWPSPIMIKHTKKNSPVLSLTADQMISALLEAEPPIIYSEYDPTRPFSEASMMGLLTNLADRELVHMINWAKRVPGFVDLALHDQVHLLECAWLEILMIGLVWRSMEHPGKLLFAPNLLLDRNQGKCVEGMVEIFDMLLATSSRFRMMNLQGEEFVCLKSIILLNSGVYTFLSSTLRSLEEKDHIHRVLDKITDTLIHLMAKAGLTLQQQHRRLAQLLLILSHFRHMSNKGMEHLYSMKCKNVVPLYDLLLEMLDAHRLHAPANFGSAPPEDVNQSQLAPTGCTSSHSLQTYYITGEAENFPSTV
assayNotes: NVS_NR_bER: NovaScreen (NVS) Nuclear Receptor Binding Assay for bovine Estrogen Receptor (ER) (AID 2283345);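 further: actives lower the bound radioligand count which means they displace the ER ligand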
Results filed as inconclusive are left out. The source made the active and inactive calls. How the source made its calls: active means hit-call score of the fitted dose curve at least 0.9, where 1 is the maximum; inconclusive means response in the unintended direction; inactive means score below 0.9.
Hello, when you answer, please use one of the following outcomes: active, inactive

Worked set:
compound: CC(C)(C)C1CCC(=O)CC1
labelValue: active
//
compound: Nc1nc(N)nc(-c2ccccc2)n1
labelValue: inactive
//
compound: CC(C)c1ccc(O)c(C(C)C)c1
labelValue: inactive
//
compound: O=C(O)C1CCC(C(=O)O)CC1 (configuration not stated)
labelValue: inactive
//
compound: CCCCCCCOC(=O)c1ccc(O)cc1
labelValue: active
//
compound: COC(OC)(C(=O)c1ccccc1)c1ccccc1
labelValue: inactive

Shifting focus to the compound that follows.
*Q* Answer briefly: the call reported for `Nc1ccc(O)c([N+](=O)[O-])c1` in this assay.
*A* inactive

---

assayNotes: BSK_CASM3C_SRB: Viability Assessment in the BioMAP Diversity Plus: CASM3C Assay (AID 2283050);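 further: total protein by SRB staining as cytotoxicity measure in parallel cultures; cells exposed to compound for 24 h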
conditionNotes: primary human coronary artery smooth muscle cells
Activity calls are given as the source filed them. The calls were made as follows: active = hit-call score of the fitted dose curve at least 0.9, where 1 is the maximum; inactive = score below 0.9.
I would appreciate it if you answered using one of these outcomes: 1 (active), 0 (inactive)

Study these solved cases before continuing.
molecule: Oc1ccccc1Cc1ccccc1O
labelValue: 0
--
molecule: COc1ccc(C(=O)c2ccccc2)c(O)c1
labelValue: 0
--
molecule: Nc1ccc(C(=O)O)cc1
labelValue: 0
--
molecule: CC(CCC(=O)O)(c1ccc(O)cc1)c1ccc(O)cc1
labelValue: 0
--
molecule: CC(C)c1cccc(C(C)C)c1N
labelValue: 0
--
molecule: CCOC(=O)C1=NN(c2ccc(Cl)cc2Cl)C(C)(C(=O)OCC)C1 (centres undefined)
labelValue: 0

*Q* Record request — test call for `C=CC(=O)OCCCCCCOC(=O)C=C`
*A* 1

*Q* Please answer likewise for `CCCCCCOC(=O)CCCCC(=O)OCCCCCC`
*A* 0

*Q* Do the same for `c1ccc2c(c1)[nH]c1ccccc12` please
*A* 0

---

assayNotes: ATG_NRF2_ARE_CIS: Attagene CIS-FACTORIAL HepG2 Assay for human Nuclear Factor Erythroid 2 Related Factor 2 (NFR2) response to Antioxidant Response Elements (ARE) (AID 2282992)
conditionNotes: HepG2 Attagene ARE/NRF2 reporter, transcription factor activity; actives raise or lower the signal
Activity calls are given as the source filed them. The calls were made as follows: active = hit-call score of the fitted dose curve at least 0.9, where 1 is the maximum; inactive = score below 0.9.
Classes to choose from: Y (active), N (inactive)

compound: O=C(O)CCCC(=O)O
labelValue: N

compound: CC(C)[N+](C)(CCOC(=O)C1c2ccccc2Oc2ccccc21)C(C)C
labelValue: N

compound: Nc1ccc(O)c([N+](=O)[O-])c1
labelValue: Y

compound: O=C(Nc1ccccc1)c1cc(Cl)ccc1O
labelValue: Y

# input for lookup
*Q* Hi, do you know how CC(CC=O)CC(C)(C)C (stereo not given) came out in this test?
*A* N
